- recorded-conditions: 372.78 K; Liquid
Property: vapor or sublimation pressure; scope: individual molecules
A number alone suffices; assume kPa.

Example molecules with recorded vapor or sublimation pressure:
FC(F)OCC(F)(F)C(F)(F)F	498.1
FC(F)COC(F)(F)C(F)F	202.5
COC(F)(F)C(F)(F)C(F)F	273.4

Okay, now this molecule:
For `FC(F)C(F)(F)OCC(F)(F)C(F)(F)F` , write its vapor or sublimation pressure.
256.8

###

Entries and their vapor or sublimation pressure values follow.
- recorded-conditions: 453 K; Liquid
Write the answer as a number in kPa, unit excluded.

Answered examples (3):
FC(F)COC(F)(F)C(F)F	1341.6
FC(C(F)(F)F)C(F)(F)OCC(F)(F)C(F)(F)F (centres undefined)	1067.4
FC(F)C(F)(F)OCC(F)(F)C(F)(F)F	1567.3

Moving on to another compound below.
Specify reported vapor or sublimation pressure for the compound shown: `COCC(F)(F)C(F)(F)C(F)(F)F`
1462.9

###

Listed below: vapor or sublimation pressure values for each entry.
- recorded-conditions: 332.69 K; Liquid
± gives the expanded uncertainty stated by the source.

Before answering, review these 3 worked examples.
FC(F)C(F)(F)OCC(F)(F)F	114.5 ± 1.1 kPa
FC(F)C(F)(F)COC(F)(F)C(F)C(F)(F)F (centres undefined)	45.8 ± 2.5 kPa
COC(F)(F)C(F)(F)C(F)F	77 ± 2.1 kPa

Next molecule, please.
Hello, please tell me recorded vapor or sublimation pressure for this one: `FC(F)C(F)(F)OCC(F)(F)C(F)(F)F`
69.8 ± 1 kPa

###

- recorded-conditions: 352.73 K; Liquid
Numbers after ± are expanded uncertainties.
readout-type: vapor or sublimation pressure

Use the examples below as a reference point.
COC(F)(F)C(F)(F)C(F)F [1,1,2,2,3,3-hexafluoro-1-methoxypropane]	151.1 ± 3.9 kPa
FC(F)COC(F)(F)C(F)F [1,1,2,2-tetrafluoro-2-(2,2-difluoroethoxy)ethane]	106.1 ± 1.1 kPa
FC(F)C(F)(F)COC(F)(F)C(F)F [1,1,2,2-tetrafluoro-3-(1,1,2,2-tetrafluoroethoxy)propane]	67.9 ± 1 kPa

Indicate the recorded vapor or sublimation pressure value for this compound: FC(C(F)(F)F)C(F)(F)OCC(F)(F)F (centres undefined) [1,1,1,2,3,3-hexafluoro-3-(2,2,2-trifluoroethoxy)propane]
131 ± 1.1 kPa

###

- recorded-conditions: Liquid; Visual observation in an unstirred cell
readout-type: Critical temperature (K)
Form entry: value (K) — number only.

The examples below pair each entry with its known result.
COCC(F)(F)C(F)(F)C(F)(F)F [1,1,1,2,2,3,3-heptafluoro-4-methoxybutane]	481.54
CCOC(F)(F)C(F)(F)C(F)(F)C(F)(F)F [1-ethoxy-1,1,2,2,3,3,4,4,4-nonafluorobutane]	482.02

Provide one value: measured Critical temperature of FC(F)C(F)(F)COC(F)(F)C(F)F [1,1,2,2-tetrafluoro-3-(1,1,2,2-tetrafluoroethoxy)propane]
510.07

Name the recorded Critical temperature of the compound listed here: FC(F)C(F)(F)OCC(F)(F)F [2,2,2-trifluoroethyl 1,1,2,2-tetrafluoroethyl ether]
463.89

Report Critical temperature for FCC(F)(F)F [1,1,1,2-tetrafluoroethane]
374.13

###

Measured vapor or sublimation pressure by item
- recorded-conditions: 442.97 K; Liquid
Write the answer as a number in kPa, unit excluded.

Identify vapor or sublimation pressure associated with the molecule `COC(F)(F)C(F)(F)C(F)F`
1333.7

Give me measured vapor or sublimation pressure, please, for this molecule: `COCC(F)(F)C(F)F`
1138.1

###

- recorded-conditions: 382.81 K; Liquid
readout-type: vapor or sublimation pressure (kPa)
Your answer should be a plain number; it is taken to be in kPa.

The following molecules have reported results that may help.
FC(F)C(F)(F)OCC(F)(F)F	510.6
COC(F)(F)C(F)(F)C(F)F	357.4
FC(F)C(F)(F)OCC(F)(F)C(F)(F)F	337.6
COCC(F)(F)C(F)(F)C(F)(F)C(F)F	106.8

Switching to the query record.
Consider the molecule `FC(F)C(F)(F)COC(F)(F)C(F)F` . State its measured vapor or sublimation pressure.
177.3

###

- recorded-conditions: Liquid
readout-type: Critical density (kg/m3)
Express the result in kg/m3 but write the number alone.

FC(F)C(F)(F)COC(F)(F)C(F)F [1,1,2,2-tetrafluoro-3-(1,1,2,2-tetrafluoroethoxy)propane]	530
FC(C(F)(F)F)C(F)(F)OCC(F)(F)C(F)(F)F (stereo not drawn)	567
FC(F)OCC(F)(F)C(F)(F)F [difluoromethyl 2,2,3,3,3-pentafluoropropyl ether]	576
FC(F)COC(F)(F)C(F)F [1,1,2,2-tetrafluoro-2-(2,2-difluoroethoxy)ethane]	520
FCC(F)(F)F [1,1,1,2-tetrafluoroethane]	508
FC(C(F)(F)F)C(F)(F)OCC(F)(F)F (stereo not drawn) [1,1,1,2,3,3-hexafluoro-3-(2,2,2-trifluoroethoxy)propane]	563

Tell me Critical density reported for CC(F)(F)Cl [1-chloro-1,1-difluoroethane]
442

###

Listed compounds paired with reported vapor or sublimation pressure
- recorded-conditions: 442.97 K; Liquid
Answer format: numeric, kPa implied, no suffix.

FC(F)C(F)(F)OCC(F)(F)C(F)(F)F [1,1,1,2,2-pentafluoro-3-(1,1,2,2-tetrafluoroethoxy)propane]	1298
FC(F)COC(F)(F)C(F)F [1,1,2,2-tetrafluoro-2-(2,2-difluoroethoxy)ethane]	1102.4

Report measured vapor or sublimation pressure; entry is COCC(F)(F)C(F)(F)C(F)(F)C(F)F [1,1,2,2,3,3,4,4-octafluoro-5-methoxypentane]
482.8

###

- recorded-conditions: Liquid
# if value of Critical density reaches 500 kg/m3, tag met; if it stays below, tag not met

Examples from the recorded data:
COCC(F)(F)C(F)F [1,1,2,2-tetrafluoro-3-methoxypropane]	not met
FC(F)C(F)(F)OCC(F)(F)F [2,2,2-trifluoroethyl 1,1,2,2-tetrafluoroethyl ether]	met
CCOC(F)(F)C(F)(F)C(F)(F)C(F)(F)F [1-ethoxy-1,1,2,2,3,3,4,4,4-nonafluorobutane]	met

Turning to the following compound.
Threshold query (Critical density >= 500 kg/m3) on FC(F)C(F)(F)OCC(F)(F)C(F)(F)F [1,1,1,2,2-pentafluoro-3-(1,1,2,2-tetrafluoroethoxy)propane]
met
